# credit: patent US8759366B2

biological target: UniProt:P43405; conditions: read-out: rhSYK activity
pIC50: −log10 of the molar value.

molecule | pIC50
Cc1cc(Nc2nccc(C(F)(F)F)n2)cc(-c2cnc(C3(O)CCN(c4ccccc4F)CC3)s2)c1 | 6.00 to 7.00
CC(=O)NS(=O)(=O)C1(c2ncc(-c3cc(C)cc(Nc4nccc(C(F)(F)F)n4)c3)s2)CCC1 | > 7.00
Cc1cc(Nc2nccc(C(F)(F)F)n2)cc(-c2cnc(C3(O)CC4(C(=O)O)CCC3(C)C4(C)C)s2)c1 (centres unmarked) | > 7.00
OC1(c2ncc(-c3cc(Nc4nccc(C(F)(F)F)n4)cc(C(F)F)c3)s2)CCC1 | > 7.00
Cc1cc(Nc2nccc(C(F)(F)F)n2)cc(-c2cnc(C(NC(=O)NC(N)=O)(C3CC3)C3CC3)s2)c1 | > 7.00
OC(c1ncc(-c2cc(Nc3nccc(C(F)(F)F)n3)cc(N3CCOCC3)c2)s1)(C1CC1)C1CC1 | > 7.00
Cc1cc(Nc2nccc(C)n2)cc(-c2cnc(C3(O)CCC(CN)CC3)s2)c1 (centres unmarked) [Example 4C-2] | > 7.00
Cc1cc(Nc2nccc(C(F)(F)F)n2)cc(-c2cnc([C@]3(O)CC[C@@H](c4n[nH]c(=O)o4)CC3)s2)c1 | > 7.00
Cc1cc(Nc2nccc(C)n2)cc(-c2cnc(C3(O)CCC(C(=O)O)[C@@H]4CCCC[C@H]43)s2)c1 (some centres unmarked) | > 7.00
CCOC(=O)C1CC=C(c2ncc(-c3cc(C)cc(Nc4nccc(C(F)(F)F)n4)c3)s2)CC1 (centres unmarked) | 6.00 to 7.00
Cc1cc(Nc2nccc(C(F)(F)F)n2)cc(-c2cnc(C3CCC3)s2)c1 | 6.00 to 7.00
CCNC(=O)Nc1cc(Nc2nccc(C(F)(F)F)n2)cc(-c2cnc(C3CCC(C(N)=O)CC3)s2)c1 (single isomer, unassigned) | > 7.00
Cc1cc(Nc2nccc(C(F)(F)F)n2)cc(-c2cnc(C3(O)CCC4(CCC(=O)N4)CC3)s2)c1 (centres unmarked) | > 7.00
C#Cc1cc(Nc2nccc(C(F)(F)F)n2)cc(-c2cnc(C(C)(C)O)s2)c1 | > 7.00
Cc1cc(Nc2nccc(C(F)(F)F)n2)cc(-c2cnc(C3(O)CCN(S(=O)(=O)c4ccccc4)CC3)s2)c1 | 6.00 to 7.00
COc1ccnc(Nc2cc(C)cc(-c3cnc(C4(Cl)CCN(S(N)(=O)=O)CC4)s3)c2)n1 | > 7.00
Cc1cc(Nc2ncc(F)c(C)n2)cc(-c2cncs2)c1 [Intermediate 49] | > 7.00
Cc1cc(Nc2nccc(C(F)(F)F)n2)cc(-c2cnc(C3(O)CCNC(=O)CC3)s2)c1 (centres unmarked) | > 7.00
Cc1cc(Nc2nccc(C(F)(F)F)n2)cc(-c2cnc(C3(O)CCC(=O)CC3)s2)c1 | > 7.00
Cc1cc(Nc2nccc(C(F)(F)F)n2)cc(-c2cnc(C3(O)CN(C(C)(C)C(=O)O)C3)s2)c1 | > 7.00
